TEST METHOD NOTES: Cmax in mouse at 10 mg/kg, sc
Type: ADME, organism-based
Parameters: dose 10 mg/kg, route subcutaneous
COND: in vivo
MEASUREMENT LABEL: Cmax (ng/mL)

* NC(=O)c1cc2cc(Br)c(C(F)(F)F)nc2nc1N | 7050

----------
TEST METHOD NOTES: Intrinsic clearance in rat hepatocytes measured per 10^6 cells
Assay type: ADME, cell-based, Hepatocyte
COND: read-out: CLH
MEASUREMENT LABEL: hepatocyte CLint (µL/min/1e6 cells)

• NC(=O)c1cc2cc(Br)c(C(F)(F)F)nc2nc1N = 1.8

----------
TEST METHOD NOTES: Oral bioavailability in rat at 1 mg/kg
Assay type: ADME, organism-based
COND: in vivo
MEASUREMENT LABEL: bioavailability (%)

• NC(=O)c1cc2cc(Br)c(C(F)(F)F)nc2nc1N = 80

----------
Test system: Haemophilus influenzae
TEST METHOD NOTES: Antibacterial activity against wild type Haemophilus influenzae A921 by CLSI dilution method
Type: functional
MEASUREMENT LABEL: MIC

• NC(=O)c1cc2cc(CO)c(C(F)(F)F)nc2nc1N = 2 mg/L
• Cc1cc2cc(C(N)=O)c(N)nc2nc1C(F)(F)F = 0.25 mg/L
• CC(C)(C)OC(=O)N1CC(c2nc3nc(N)c(C(N)=O)cc3cc2Br)C1 = > 16 mg/L
• NC(=O)c1cc2cc(Br)c(C(F)(F)F)nc2nc1N = 0.125 mg/L
• CN(CCO)c1c(Br)c(C(F)(F)F)nc2nc(N)c(C(N)=O)cc12 = 4 mg/L
• NC(=O)c1cc2ccc(C(F)(F)F)nc2nc1N = 0.5 mg/L
• C=CCc1c(Cl)nc2nc(N)c(C(N)=O)cc2c1C = 4 mg/L
• CC(C)(OCc1ccccc1)c1nc2nc(N)c(C(N)=O)cc2cc1Br = > 16 mg/L
• NC(=O)c1cc2cc(Br)c(C3CCCC3)nc2nc1N = > 16 mg/L
• NC(=O)c1cc2c(CCO)cc(C(F)(F)F)nc2nc1N = 1 mg/L
• CC(C)(C)c1nc2nc(N)c(C(N)=O)cc2cc1Br = 2 mg/L
• NC(=O)c1cc2cc(C3CCCC3)c(C(F)(F)F)nc2nc1N = 16 mg/L
• Cc1c(Cc2ccccc2)c(Cl)nc2nc(N)c(C(N)=O)cc12 = 2 mg/L
• NC(=O)c1cc2c(-c3ccccc3)cc(C(F)(F)F)nc2nc1N = 8 mg/L
• NC(=O)c1cc2cc(Cc3ccccc3)c(C(F)(F)F)nc2nc1N = 4 mg/L
• Cc1cc(C(F)(F)F)nc2nc(N)c(C(N)=O)cc12 = 0.5 mg/L
• NC(=O)c1cc2c3c(c(Cl)nc2nc1N)CC3 = 8 mg/L
• COCCc1cc(C(F)(F)F)nc2nc(N)c(C(N)=O)cc12 = 4 mg/L
• NCc1cc(C(F)(F)F)nc2nc(N)c(C(N)=O)cc12 = 4 mg/L
• NC(=O)c1cc2c(N3CCC(O)CC3)c(Br)c(C(F)(F)F)nc2nc1N = > 16 mg/L
• NC(=O)c1cc2cc(CCc3ccccc3)c(C(F)(F)F)nc2nc1N = > 16 mg/L
• NC(=O)c1cc2c(N3CC[C@@H](N)C3)c(Br)c(C(F)(F)F)nc2nc1N = 8 mg/L
• C=Cc1cc2cc(C(N)=O)c(N)nc2nc1C(F)(F)F = 1 mg/L

----------
TEST METHOD NOTES: AUC (0 to infinity) in rat at 0.1 mg/kg, iv
Assay type: ADME, organism-based
Set-up: time infinity, dose 0.1 mg/kg, route intravenous
COND: plasma
MEASUREMENT LABEL: AUC(0-inf) (ng·h/mL)

* NC(=O)c1cc2cc(Br)c(C(F)(F)F)nc2nc1N | 150

----------
Test system: Staphylococcus aureus
TEST METHOD NOTES: Antibacterial activity against wild type Staphylococcus aureus ATCC 29213 by CLSI dilution method
Assay type: functional
# maps each entry to its MIC
MEASUREMENT LABEL: MIC (µg/mL)

* Cc1cc2cc(C(N)=O)c(N)nc2nc1C(F)(F)F | 4
* NC(=O)c1cc2c3c(c(Cl)nc2nc1N)CC3 | 16
* Cc1cc(C(F)(F)F)nc2nc(N)c(C(N)=O)cc12 | 8
* CCc1cc2cc(C(N)=O)c(N)nc2nc1C(F)(F)F | 4
* CC(C)c1cc2cc(C(N)=O)c(N)nc2nc1C(F)(F)F | 16

----------
TEST METHOD NOTES: Fraction unbound in mouse plasma at 10 mg/kg, sc
Format: ADME, organism-based
Set-up: dose 10 mg/kg, route subcutaneous
MEASUREMENT LABEL: fraction unbound

* NC(=O)c1cc2cc(Br)c(C(F)(F)F)nc2nc1N | 0.046

----------
TEST METHOD NOTES: Inhibition of Streptococcus pneumoniae NAD-dependent DNA ligase assessed as equilibrium dissociation constant
pKd: −log10 of the molar value.
Decision: pKd >= 7 yields fulfilled, all other cases yield not fulfilled.

• NC(=O)c1cc2c(N3CC(O)C3)c(Br)c(C(F)(F)F)nc2nc1N = fulfilled
• Cc1cc2cc(C(N)=O)c(N)nc2nc1C(F)(F)F = fulfilled
• NC(=O)c1cc2cc(CO)c(C(F)(F)F)nc2nc1N = not fulfilled
• NC(=O)c1cc2c(N3CCC(O)CC3)c(Br)c(C(F)(F)F)nc2nc1N = fulfilled
• CC(C)(OCc1ccccc1)c1nc2nc(N)c(C(N)=O)cc2cc1Br = not fulfilled

----------
TEST METHOD NOTES: Inhibition of Streptococcus pneumoniae NAD-dependent DNA ligase assessed as equilibrium dissociation constant
# maps each entry to its log10 Kd
MEASUREMENT LABEL: log10 Kd (log10 of the value in µM)

• Cc1c(Cc2ccccc2)c(Cl)nc2nc(N)c(C(N)=O)cc12 = -0.97
• NC(=O)c1cc2cc(C3CCCC3)c(C(F)(F)F)nc2nc1N = -0.82
• NC(=O)c1cc2c3c(c(Cl)nc2nc1N)CC3 = -0.82
• COCCc1cc(C(F)(F)F)nc2nc(N)c(C(N)=O)cc12 = -0.34
• NC(=O)c1cc2c(N3CC[C@@H](O)C3)c(Br)c(C(F)(F)F)nc2nc1N = -1.51
• CC(C)c1cc2cc(C(N)=O)c(N)nc2nc1C(F)(F)F = -0.82
• NC(=O)c1cc2cc(Cc3ccccc3)c(C(F)(F)F)nc2nc1N = -0.85
• NC(=O)c1cc2c(-c3ccccc3)cc(C(F)(F)F)nc2nc1N = -0.63
• NC(=O)c1cc2c(CCO)cc(C(F)(F)F)nc2nc1N = -0.37
• C=Cc1cc2cc(C(N)=O)c(N)nc2nc1C(F)(F)F = -1.05
• CN(CCO)c1c(Br)c(C(F)(F)F)nc2nc(N)c(C(N)=O)cc12 = -1.24

----------
Tested on: Staphylococcus aureus
TEST METHOD NOTES: Antibacterial activity against wild type Staphylococcus aureus ATCC 29213 by CLSI dilution method
Format: functional
MEASUREMENT LABEL: MIC

- NC(=O)c1cc2cc(Br)c(C(F)(F)F)nc2nc1N: 1 µg/mL
- Cc1c(Cc2ccncc2)c(Cl)nc2nc(N)c(C(N)=O)cc12: > 16 µg/mL
- NC(=O)c1cc2ccc(C(F)(F)F)nc2nc1N: 8 µg/mL
- NC(=O)c1cc2cc(Cc3ccccc3)c(C(F)(F)F)nc2nc1N: > 16 µg/mL
- NC(=O)c1cc2cc(C3CCCC3)c(C(F)(F)F)nc2nc1N: > 16 µg/mL
- NC(=O)c1cc2c(N3CC[C@@H](N)C3)c(Br)c(C(F)(F)F)nc2nc1N: > 16 µg/mL
- NC(=O)c1cc2cc(CCc3ccccc3)c(C(F)(F)F)nc2nc1N: > 16 µg/mL
- C=Cc1cc2cc(C(N)=O)c(N)nc2nc1C(F)(F)F: 2 µg/mL
- NC(=O)c1cc2c(N3CC(O)C3)c(Br)c(C(F)(F)F)nc2nc1N: 16 µg/mL
- NC(=O)c1cc2c(N3CCC(O)CC3)c(Br)c(C(F)(F)F)nc2nc1N: > 16 µg/mL
- COCCc1cc(C(F)(F)F)nc2nc(N)c(C(N)=O)cc12: > 16 µg/mL

----------
EXPERIMENTAL TARGET: Cytochrome P450 2D6 (Homo sapiens, UniProt P10635)
Sequence (P10635 whole entry): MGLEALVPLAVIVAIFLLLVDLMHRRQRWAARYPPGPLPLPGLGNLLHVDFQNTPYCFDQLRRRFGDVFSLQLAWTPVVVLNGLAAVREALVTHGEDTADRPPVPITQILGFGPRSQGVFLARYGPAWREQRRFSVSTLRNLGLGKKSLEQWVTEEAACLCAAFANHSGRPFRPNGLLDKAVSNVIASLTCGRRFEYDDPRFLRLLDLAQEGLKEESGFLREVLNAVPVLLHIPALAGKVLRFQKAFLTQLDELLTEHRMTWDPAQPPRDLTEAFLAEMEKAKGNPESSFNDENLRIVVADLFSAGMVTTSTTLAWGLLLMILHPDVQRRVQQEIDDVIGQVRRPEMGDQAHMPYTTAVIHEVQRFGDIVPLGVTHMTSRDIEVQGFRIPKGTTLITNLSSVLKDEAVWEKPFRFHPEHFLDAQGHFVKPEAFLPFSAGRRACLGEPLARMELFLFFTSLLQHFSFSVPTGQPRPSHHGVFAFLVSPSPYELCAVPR
MEASUREMENT LABEL: IC50

* NC(=O)c1cc2cc(Br)c(C(F)(F)F)nc2nc1N | > 50 µM

----------
pIC50: −log10 of the molar value.
Reported values: pIC50 for DNA ligase (Staphylococcus aureus, UniProt Q9AIU7), one per item.
MEASUREMENT LABEL: pIC50

• Nc1cc(-c2nc3ccccc3[nH]2)n[nH]c1=O = 5.60
• COc1nc2nc(N)nc(N)c2nc1C = 5.60

Numbers sourced from ChEMBL document CHEMBL2163244.
